In this section we review reported GI50 values for a set of compounds.
- Tested on: NCI-H226 lung
- experimentalDetails: NCI tumour cell line growth inhibition, 48 h

compoundStructure | GI50
COc1cc(C(=O)NC2CCN(C)CC2)c(F)cc1Nc1ncc2c(n1)N(C1CCCC1)CC(F)(F)C(=O)N2C | 2.64 µM
CCc1ccc(NC(=O)COC(=O)c2cc([N+](=O)[O-])ccc2Sc2nnnn2C)cc1 | 17 µM
C/C=C(\C)C(=O)O[C@H]1C=CC(=O)O[C@@H]1CC[C@H](O)[C@H](C)O | 47.4 µM
Nc1[nH]nc2nc(-c3cccs3)cc(C(F)(F)F)c12 | > 23.2 µM
O=C(Nc1ccc(Cl)c(Cl)c1)O/N=C\c1c(Cl)ccc([N+](=O)[O-])c1Cl | 3.06 µM

Specify reported GI50 for the compound shown: "CC[C@H](CO)Nc1nc(NCc2ccccc2)n2ncc(C(C)C)c2n1"
1.84 µM

Hello, the source for this data is PubChem BioAssay (NCI), in case you need it.
